# measurement protocol: Pharmacokinetic drug-drug interaction of the compound of the formula I and ritonavir in healthy volunteers (single dose, alone and with RTV)
# Assay type: in vivo, human
# particulars: human, plasma, po, 75 mg, 75 mg oral single dose alone; mean

structure string	Tmax (min)
CCN1c2ncc(CCOc3cc[n+]([O-])c4ccccc34)cc2C(=O)N(C)c2cccnc21	40.2

====

# measurement protocol: Pharmacokinetic drug-drug interaction of the compound of the formula I and ritonavir in healthy volunteers (single dose, alone and with RTV)
# Format: in vivo, human
# particulars: human, plasma, oral, 12.5 mg, 12.5 mg alone (no RTV), mean (Table 1)
reported property: Cmax (ng/mL)

molecule	unit abbrev	numeric readout
CCN1c2ncc(CCOc3cc[n+]([O-])c4ccccc34)cc2C(=O)N(C)c2cccnc21 [the compound of the formula I]	ng/mL	14.8

====

# measurement protocol: Pharmacokinetic drug-drug interaction of the compound of the formula I and ritonavir in healthy volunteers (single dose, alone and with RTV)
# Type: in vivo, human
# particulars: human, plasma, po, 25 mg, 25 mg oral single dose alone; mean
reported property: Tmax

structure string	reported property	result
CCN1c2ncc(CCOc3cc[n+]([O-])c4ccccc34)cc2C(=O)N(C)c2cccnc21	Tmax	49.8 min

====

# measurement protocol: Pharmacokinetic drug-drug interaction of the compound of the formula I and ritonavir in healthy volunteers (single dose, alone and with RTV)
# Type: in vivo, human
# particulars: human, plasma; 75 mg oral single dose alone; mean
reported property: AUC (ng·h/mL)

structure string	reported property	unit abbrev	numeric readout
CCN1c2ncc(CCOc3cc[n+]([O-])c4ccccc34)cc2C(=O)N(C)c2cccnc21	AUC	ng·h/mL	817

====

# measurement protocol: Pharmacokinetic drug-drug interaction of the compound of the formula I and ritonavir in healthy volunteers (single dose, alone and with RTV)
# Type: in vivo, human
# particulars: human, plasma, oral, 5 mg solution + RTV 100 mg; plasma, mean; read-out: half-life (converted)
reported property: half-life (h)

structure string	numeric readout
CCN1c2ncc(CCOc3cc[n+]([O-])c4ccccc34)cc2C(=O)N(C)c2cccnc21	15.3

====

# measurement protocol: Pharmacokinetic drug-drug interaction of the compound of the formula I and ritonavir in healthy volunteers (single dose, alone and with RTV)
# Format: in vivo, human
# particulars: human, plasma, po, 100 mg, 100 mg oral single dose alone; mean

compound	Tmax, min
CCN1c2ncc(CCOc3cc[n+]([O-])c4ccccc34)cc2C(=O)N(C)c2cccnc21 [the compound of the formula I]	33

====

# measurement protocol: Pharmacokinetic drug-drug interaction of the compound of the formula I and ritonavir in healthy volunteers (single dose, alone and with RTV)
# Format: in vivo, human
# particulars: human, plasma, po, 100 mg, 100 mg oral single dose alone; mean; read-out: Half-life (converted)

compound	half-life, min
CCN1c2ncc(CCOc3cc[n+]([O-])c4ccccc34)cc2C(=O)N(C)c2cccnc21 [the compound of the formula I]	112

Provenance of the data: patent US20080096832A1
